# experimental_system: PeDPP11 (PeDPP11_22-717 S652A) (Porphyromonas endodontalis, UniProt F8WQK8, S652A)
# Construct: genes encoding for C-terminal 6xHis-tagged PeDPP11_22-717 S652A and PgDPP11_22-720 S655A in the pET-22b(+) vector; 6xHis (C); made in house; host or cells: E. coli BL21(DE3)pLysS
# Sequence (F8WQK8 22-717 S652A): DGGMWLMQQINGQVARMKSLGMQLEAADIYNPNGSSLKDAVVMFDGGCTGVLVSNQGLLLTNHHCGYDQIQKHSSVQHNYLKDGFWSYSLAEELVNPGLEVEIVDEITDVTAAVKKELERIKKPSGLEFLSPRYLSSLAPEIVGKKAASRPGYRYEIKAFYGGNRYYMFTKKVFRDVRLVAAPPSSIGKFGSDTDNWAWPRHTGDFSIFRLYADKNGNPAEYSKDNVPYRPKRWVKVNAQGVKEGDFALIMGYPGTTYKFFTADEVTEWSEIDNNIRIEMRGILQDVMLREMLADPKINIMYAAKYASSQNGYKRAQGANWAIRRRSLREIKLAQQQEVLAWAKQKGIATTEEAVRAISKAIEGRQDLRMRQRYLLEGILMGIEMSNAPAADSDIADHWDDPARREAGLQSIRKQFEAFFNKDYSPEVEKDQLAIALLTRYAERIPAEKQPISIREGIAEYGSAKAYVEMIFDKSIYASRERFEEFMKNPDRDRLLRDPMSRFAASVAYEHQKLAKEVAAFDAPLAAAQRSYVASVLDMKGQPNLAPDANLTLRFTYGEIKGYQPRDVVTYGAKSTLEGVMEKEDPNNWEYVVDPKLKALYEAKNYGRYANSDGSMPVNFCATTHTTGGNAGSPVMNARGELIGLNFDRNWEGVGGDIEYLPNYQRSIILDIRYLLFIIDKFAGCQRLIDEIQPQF
# experiment_description: Isothermal titration calorimetry (ITC) of peptide binding to PeDPP11
# protocol_conditions: Kd, 20 °C (293 K), 10 mM Hepes-NaOH pH 7.4, 100 mM NaCl, averages of at least two independent measurements
Peptide text beside a SMILES is read from it.
metric: Kd

Look up and state reported Kd for CC(C)C[C@H](N)C(=O)N[C@@H](CC(=O)O)C(=O)O [LD] (H-Leu-Asp-OH)
1000 nM
